# System: Poly(dG-dC)oligonucleotide
# test: Binding affinity to poly(dGdC)2 DNA (unknown origin) assessed as ratio of bound compound to polynucleotide phosphate in sodium cacodylate buffer at pH 7 by fluorescence spectroscopy based Scatchard method
# Type: nucleic-acid assay
endpointName: Ratio

- smilesStr: "CN(C)CCCNc1ccc2cc(C#N)c3nc4cccnc4n3c2c1"
  Ratio: 0.2

P: N#Cc1c(N2CCNCC2)c2ccc(N3CCNCC3)cc2n2c1nc1cccnc12
Q: N#Cc1c(N2CCNCC2)c2ccc(N3CCNCC3)cc2n2c1nc1ncccc12
Ask: In terms of reported Ratio, does P or Q have the smaller number? # respond with the chosen item's label
Result: Q
(Q: 0.2, P: 0.3)

---

# Tested on: Poly(dG-dC)oligonucleotide
# test: Binding affinity to poly(dGdC)2 DNA (unknown origin) assessed as binding constant in sodium cacodylate buffer at pH 7 by fluorescence spectroscopy
# Format: nucleic-acid assay
endpointName: log Ks

- smilesStr: "N#Cc1c(N2CCNCC2)c2ccc(N3CCNCC3)cc2n2c1nc1cccnc12"
  log Ks: 6.8
- smilesStr: "CC(C)CNc1c(C#N)c2nc3ncccc3n2c2ccccc12"
  log Ks: 5.5
- smilesStr: "CN(C)CCCNc1ccc2cc(C#N)c3nc4cccnc4n3c2c1"
  log Ks: 5.8
- smilesStr: "N#Cc1c(N2CCNCC2)c2ccc(N3CCNCC3)cc2n2c1nc1ncccc12"
  log Ks: 6.6
- smilesStr: "CN(C)CCCNc1ccc2cc(C#N)c3nc4ncccc4n3c2c1"
  log Ks: 5.6

---

# Test system: Quadruplex DNA
# test: Binding affinity to human Tel22 G quadruplex DNA assessed as change in melting temperature in sodium cacodylate buffer at pH 7 by UV/Vis spectrophotometric analysis
# Type: nucleic-acid assay
endpointName: ΔTm (°C)

Please review the following examples before continuing.
- smilesStr: "CN(C)CCCNc1ccc2cc(C#N)c3nc4cccnc4n3c2c1"
  ΔTm, °C: 1.9
- smilesStr: "CC(C)CNc1c(C#N)c2nc3cccnc3n2c2ccccc12"
  ΔTm, °C: 1.8
- smilesStr: "N#Cc1c(N2CCNCC2)c2ccc(N3CCNCC3)cc2n2c1nc1ncccc12"
  ΔTm, °C: 2.5

a: CC(C)CNc1c(C#N)c2nc3ncccc3n2c2ccccc12
b: CN(C)CCCNc1ccc2cc(C#N)c3nc4ncccc4n3c2c1
Ask: In terms of reported ΔTm, does a or b have the smaller number? # respond with the chosen item's label
Result: a

---

# Test system: Poly(dG-dC)oligonucleotide
# test: Binding affinity to poly(dGdC)2 DNA (unknown origin) in sodium cacodylate buffer at pH 7 by CD spectroscopy
# Type: nucleic-acid assay
Active and inactive are the calls of the source. No cut-off for these calls is given here.
Output constraint: value belongs to T (active), F (inactive)

- smilesStr: "CC(C)CNc1c(C#N)c2nc3cccnc3n2c2ccccc12"
  labelValue: "F"
- smilesStr: "CC(C)CNc1c(C#N)c2nc3ncccc3n2c2ccccc12"
  labelValue: "F"
- smilesStr: "CN(C)CCCNc1ccc2cc(C#N)c3nc4cccnc4n3c2c1"
  labelValue: "T"

Ask: Call for entry N#Cc1c(N2CCNCC2)c2ccc(N3CCNCC3)cc2n2c1nc1ncccc12 :
Result: T

Ask: Call for entry CN(C)CCCNc1ccc2cc(C#N)c3nc4ncccc4n3c2c1 :
Result: T

Ask: Call for entry N#Cc1c(N2CCNCC2)c2ccc(N3CCNCC3)cc2n2c1nc1cccnc12 :
Result: T

---

# Tested on: Calf thymus DNA
# test: Binding affinity to calf thymus DNA assessed as binding constant in sodium cacodylate buffer at pH 7 by fluorescence spectroscopy
# testConditions: Bos taurus
We begin with a simple list: items and their reported log Ks.
Number, no unit, nothing else.

- smilesStr: "N#Cc1c(N2CCNCC2)c2ccc(N3CCNCC3)cc2n2c1nc1cccnc12"
  log Ks: 6.3
- smilesStr: "N#Cc1c(N2CCNCC2)c2ccc(N3CCNCC3)cc2n2c1nc1ncccc12"
  log Ks: 6.4

Ask: Provide one value: measured log Ks of CN(C)CCCNc1ccc2cc(C#N)c3nc4ncccc4n3c2c1
Result: 6

Ask: Provide one value: measured log Ks of CN(C)CCCNc1ccc2cc(C#N)c3nc4cccnc4n3c2c1
Result: 5.5

Ask: Provide one value: measured log Ks of CC(C)CNc1c(C#N)c2nc3ncccc3n2c2ccccc12
Result: 4.5

---

# Test system: Poly(dA-dU)oligonucleotide
# test: Binding affinity to polyA-polyU RNA (unknown origin) assessed as ratio of bound compound to polynucleotide phosphate in sodium cacodylate buffer at pH 7 by fluorescence spectroscopy based Scatchard method
# Type: nucleic-acid assay
endpointName: Ratio

- smilesStr: "N#Cc1c(N2CCNCC2)c2ccc(N3CCNCC3)cc2n2c1nc1cccnc12"
  targetEntity: "Poly(dA-dU)oligonucleotide"
  quantitativeResult: 0.1
- smilesStr: "N#Cc1c(N2CCNCC2)c2ccc(N3CCNCC3)cc2n2c1nc1ncccc12"
  targetEntity: "Poly(dA-dU)oligonucleotide"
  quantitativeResult: 0.1
- smilesStr: "CN(C)CCCNc1ccc2cc(C#N)c3nc4cccnc4n3c2c1"
  targetEntity: "Poly(dA-dU)oligonucleotide"
  quantitativeResult: 0.1

a: CC(C)CNc1c(C#N)c2nc3ncccc3n2c2ccccc12
b: CN(C)CCCNc1ccc2cc(C#N)c3nc4ncccc4n3c2c1
Ask: Among a and b , which shows a numerically higher Ratio result? # respond with the chosen item's label
Result: b
(b: 0.4, a: 0.1)

---

# System: Poly(dG-dC)oligonucleotide
# test: Binding affinity to poly(dGdC)2 DNA (unknown origin) assessed as ratio of fluorescence intensity of compound-polynucleotide complex to fluorescence intensity of compound in sodium cacodylate buffer at pH 7 by fluorescence spectroscopy based Scatchard method
# Type: nucleic-acid assay
endpointName: Ratio

- smilesStr: "CN(C)CCCNc1ccc2cc(C#N)c3nc4cccnc4n3c2c1"
  Ratio: 0.4
- smilesStr: "CC(C)CNc1c(C#N)c2nc3ncccc3n2c2ccccc12"
  Ratio: 0.5

P: CN(C)CCCNc1ccc2cc(C#N)c3nc4ncccc4n3c2c1
Q: N#Cc1c(N2CCNCC2)c2ccc(N3CCNCC3)cc2n2c1nc1ncccc12
Ask: In terms of reported Ratio, does P or Q have the smaller number? # respond with the chosen item's label
Result: Q
